- assay-notes: method code SF, from Hansch, C. & Leo, A. (1987). Log P database [Dataset]. Pomona College Medicinal Chemistry Project.
Ranges used to classify logP: low end: < 0.5; middle: ≥ 0.5 and < 2; high end: ≥ 2

As a guide, the following entries are already answered.
Kindly state the category for this molecule: O=C1c2ccccc2C(=O)C1(O)O
middle

Entry CC(=O)Nc1cc2c(cc1Cl)S(=O)(=O)NC(C)=N2 belongs to which category?
middle

Please let me know in which category the item CS(=O)(=O)NN=Cc1ccccc1 belongs.
middle

Sort CC(=O)NNC(=O)c1ccccn1 into one of the categories.
low end

Quick check: band for Nc1ncco1
low end

Categorize the following entry: CC(=O)NCCC(=O)N(C)c1ccc(S(=O)(=O)N(C)C)cc1
low end

Quick check: band for CSc1cccc(NC(C)=O)c1
high end

Class? Entry: S=P(N1CC1)(N1CC1)N1CC1
middle

Which band does CC(=O)Oc1ccc([N+](=O)[O-])cc1 fall in?
middle

Input N#CN=[N+]([O-])c1ccccc1 ; output its category
middle

Field: next molecule
Into which bin does this molecule go? ON=C(c1ccccc1)c1ccccc1
high end

====

- assay-notes: method code SF, from Hansch, C. & Leo, A. (1987). Log P database [Dataset]. Pomona College Medicinal Chemistry Project.
Entry flag: Criterion met if logP reaches 2; Criterion not met if it does not.

# example entries with known answers
Would you say N#CCc1ccco1 shows logP at minimum 2?
Criterion not met

Is the recorded value of logP equal to or greater than 2 for this compound? O=C(c1ccncc1)c1ccccc1O
Criterion met

Has NC(=O)c1ccc(C(O)C(CO)NC(=O)C(Cl)Cl)cc1 (stereo unspecified) a recorded logP greater than or equal to 2?
Criterion not met

Has CCNc1nc(NC(C)C)nc(SC)n1 a recorded logP greater than or equal to 2?
Criterion met

Has O=C(Nc1ccccc1)c1cccnc1 a recorded logP greater than or equal to 2?
Criterion not met

Assess whether reported logP for O=C1CCCCC1 sits at 2 or higher.
Criterion not met

Check the entry Cc1c([N+](=O)[O-])cc(C(N)=O)cc1[N+](=O)[O-] : does logP equal or exceed 2?
Criterion not met

Check the entry CCOC(=O)C(=Cc1cccc(C)c1)C(=O)OCC : does logP equal or exceed 2?
Criterion met

Others:
Test whether the compound CCCC(O)CCC records logP of 2 or higher.
Criterion met

Evaluate Brc1ccccn1 : logP at minimum 2?
Criterion not met

Does the reported logP for CCOS(=O)(=O)c1ccc(C)cc1 fall at or above the 2 mark?
Criterion not met

Determine whether this compound has logP no lower than 2: O=C(O)COc1ccc(Cl)c([N+](=O)[O-])c1
Criterion not met

API: above_or_equal(metric=logP, cutoff=2) for item O=CN(Cc1ccccc1)c1ccccc1
Criterion met

Quick check, logP >= 2? CC1=Nc2cc(Br)ccc2S(=O)(=O)N1
Criterion not met

Has Nc1ccccc1O a recorded logP greater than or equal to 2?
Criterion not met

Quick check, logP >= 2? N=C(N)NS(=O)(=O)c1ccc(N)cc1
Criterion not met

Hi, just wondering whether ClC(Cl)(Cl)Sc1ccccc1 shows logP of 2 or higher.
Criterion met

Textbook exercise: given the entry COP(=O)(NCC(C)C)Oc1cc(Cl)c(Cl)cc1Cl (stereo unspecified) , state whether its logP is greater than or equal to 2.
Criterion met

Please check the record CC1(C)O[C@@H]2C[C@H]3[C@@H]4CCC5=CC(=O)C=C[C@]5(C)[C@@]4(F)[C@@H](O)C[C@]3(C)[C@]2(C(=O)CO)O1 and state if its logP is at or above 2.
Criterion met

Is logP for NC(=O)C(=Cc1ccccc1)C(N)=O at or above 2?
Criterion not met

// inclusive: logP at least 2? input: O=C(O)CS
Criterion not met

Given the entry c1ccc(-n2cccc2)cc1 , answer whether its logP meets or surpasses 2.
Criterion met

Is the recorded value of logP equal to or greater than 2 for this compound? CNC(=O)C=C(C)OP(=O)(OC)OC
Criterion not met

====

- assay-notes: method code SF, from Hansch, C. & Leo, A. (1987). Log P database [Dataset]. Pomona College Medicinal Chemistry Project.
# logP per record follows
Could you respond with only the numeric value?

Illustrative cases are given below, each with its answer.
Entry OC(O)(C(F)(F)F)C(F)(F)F , logP reported as 1.46

Input CN(C)C(=O)c1ccoc1 . Output logP: 0.24

So, O=c1[nH]c(=O)c2[nH]cnc2[nH]1 ? Its logP was -0.73

---
In plain terms, OC(c1nc2cc(Cl)ccc2[nH]1)C(O)c1nc2cc(Cl)ccc2[nH]1 (stereo not given) has a documented logP of 1.21

logP reported for this molecule N#Cc1cccc(N)c1 : 1.07

logP in this record for COc1cccc([N+]([O-])=NC#N)c1 : 2.24

====

- assay-notes: method code SF, from Hansch, C. & Leo, A. (1987). Log P database [Dataset]. Pomona College Medicinal Chemistry Project.
- run-parameters: pH 5.9
readout: logD

Form field logD, entry CCOc1cc(Oc2ccc(C(F)(F)F)cc2Cl)ccc1[N+](=O)[O-] : 4.7

====

Overview of recorded logP for various compounds
- assay-notes: method code SF, from Hansch, C. & Leo, A. (1987). Log P database [Dataset]. Pomona College Medicinal Chemistry Project.
# respond with the number and nothing more

Worked examples, 3 compounds total:
Reported logP ( CCc1ccc(NC(C)=O)cc1 ) = 2.11

Lab note: CC(C)C1OC(=O)c2ccccc21 (centres undefined) gave logP of 2.1

Record summary for CN(CCO)C1=C(N2CC2)C(=O)C(N(C)CCO)=C(N2CC2)C1=O : reported logP = -0.37

More entries:
What the record says about O=C(Nc1ccc(Cl)c(Cl)c1)c1ccccc1 : logP is 4.42

In plain terms, OC(c1ccccc1)C1CCCCN1 (centres undefined) has a documented logP of 1.28

The reported logP of the compound COc1cccc(NC(C)=O)c1 was 1.28

====

Parameter: logD. Scope: all listed entries.
- assay-notes: method code SF, from Hansch, C. & Leo, A. (1987). Log P database [Dataset]. Pomona College Medicinal Chemistry Project.
- run-parameters: pH 7.4
Enter a number only.

For CCN(CC)c1c(C)n(CC)c(=O)n(-c2ccccc2)c1=O the compound record lists logD as 2.2

Please fill in: logD reported for CSc1ccc2c(c1)C(c1ccccc1)=NCC(=O)N2 = 2.92

For record Nc1n[nH]c(N)n1 the listed logD is -1.61

Recorded logD (compound Cc1[nH]c(=O)[nH]c(=O)c1N(CCF)CCCl ): 0.85

====

Below, each of the compounds is paired with its reported logP value.
- assay-notes: method code SF, from Hansch, C. & Leo, A. (1987). Log P database [Dataset]. Pomona College Medicinal Chemistry Project.
API doc: respond with a numeric literal and nothing else, no unit.

# logP of CCCCSc1ccccc1OC(=O)NC = 2.98

Per the records, this compound ( O=C(CCl)Nc1ccc(Cl)c(Cl)c1 ) has logP equal to 3.29

# compound CC(=O)Nc1ccc(F)cc1 ; its logP = 1.43

According to the records, this compound OCCC(F)(F)F displays logP of 0.39

The reported value for CC(C)C(=O)Nc1ccccc1 in terms of logP is 1.95

Memo: NC(=O)C(=Cc1cccc(F)c1)C(N)=O , reported logP: 0.1

Entry under test: CC(C)CCC(=O)c1ccoc1 . Its logP was 2.76

Recorded logP (compound O=C1C=CC(=NBr)C=C1 ): 1.12

The value of logP measured for the compound COC(=O)c1c(C)n(C)c2c1c1c(O)c3c(O)c(C)c4c(c32)C(=O)C(C)(OC=CC(OC)C(C)C(OC(C)=O)C(C)C(O)C(C)C(O)C(C)C=CC=C(C)C(=O)N1)O4 (stereo not drawn) turned out to be 1.46

The recorded logP for CC(=O)Nc1ccc2c(=O)c(C)c(C)oc2c1[N+](=O)[O-] is 1.61

Record CCCCCCCNC(=O)c1ccccc1 . Reported logP: 2.94

Record OC[C@@H](O)[C@@H](O)CO , field logP: -2.29

Noted for NC(=O)c1ccoc1 : its logP reads 0.09

====

- assay-notes: method code SF, from Hansch, C. & Leo, A. (1987). Log P database [Dataset]. Pomona College Medicinal Chemistry Project.
readout: logP

The value of logP measured for the compound COc1cccc(OC(=O)N(C)C)c1 turned out to be 1.6

The measured logP associated with COc1cc(C=NO)ccc1O reads 2.16

The compound listed as CCOC(=O)c1cccs1 has a reported logP of 2.33

Item: N#CCC(=O)Nc1ccc(Cl)c(Cl)c1 | logP: 2.72

The measured logP associated with CN(C(=O)c1ccccc1)c1ccccc1 reads 2.36

Next:
logP for O=c1cc(-c2ccccc2)oc2cc(O)ccc12 is 3.62

Documented logP of c1ccc2c(c1)nnc1ccccc12 : 2.71

Value of logP reported for the compound O=C(O)c1ccncc1 is -0.57
